# target.or.system: muscarinic acetylcholine receptor M3 (Homo sapiens, UniProt P20309)
# Sequence (P20309 whole entry): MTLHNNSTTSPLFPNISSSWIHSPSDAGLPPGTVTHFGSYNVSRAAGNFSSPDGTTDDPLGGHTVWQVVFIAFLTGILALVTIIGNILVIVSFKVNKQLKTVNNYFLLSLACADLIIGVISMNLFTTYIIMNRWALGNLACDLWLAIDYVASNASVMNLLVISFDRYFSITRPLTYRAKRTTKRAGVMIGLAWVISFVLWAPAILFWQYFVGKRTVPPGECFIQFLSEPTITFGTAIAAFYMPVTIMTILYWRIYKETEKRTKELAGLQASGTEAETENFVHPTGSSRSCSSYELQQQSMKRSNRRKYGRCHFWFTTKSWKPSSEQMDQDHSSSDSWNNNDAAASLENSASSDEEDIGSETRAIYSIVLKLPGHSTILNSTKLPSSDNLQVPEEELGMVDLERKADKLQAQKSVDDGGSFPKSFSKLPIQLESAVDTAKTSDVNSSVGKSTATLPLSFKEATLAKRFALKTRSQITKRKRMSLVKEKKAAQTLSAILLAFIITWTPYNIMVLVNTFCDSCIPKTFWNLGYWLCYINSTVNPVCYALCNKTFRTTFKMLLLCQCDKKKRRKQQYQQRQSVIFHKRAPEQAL
readout: Ki

Qu. Input Cc1cc(C(=O)N2Cc3cnn(C)c3Nc3ccccc32)ccc1CNC(=O)N1CCC[C@H]1C(=S)N1CCCN(C)CC1 [TC-OT-39] , output reported Ki.
Ans. > 1000 nM

====

# target.or.system: human Avpr1b vasopressin receptor (Homo sapiens, UniProt P47901)
# Sequence (P47901 whole entry): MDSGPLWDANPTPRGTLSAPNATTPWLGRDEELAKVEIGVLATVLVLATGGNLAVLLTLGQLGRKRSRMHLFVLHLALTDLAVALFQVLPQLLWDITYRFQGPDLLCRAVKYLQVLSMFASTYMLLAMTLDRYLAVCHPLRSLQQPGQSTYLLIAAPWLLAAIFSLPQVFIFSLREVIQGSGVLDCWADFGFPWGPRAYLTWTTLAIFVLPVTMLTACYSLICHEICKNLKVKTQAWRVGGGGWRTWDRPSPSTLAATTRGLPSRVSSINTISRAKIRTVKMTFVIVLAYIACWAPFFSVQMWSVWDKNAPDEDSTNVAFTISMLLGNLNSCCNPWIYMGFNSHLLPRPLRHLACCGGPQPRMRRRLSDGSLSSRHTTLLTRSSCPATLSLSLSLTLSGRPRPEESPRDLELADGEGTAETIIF
# test.details: Calcium mobilization assay, CHO-V1b
readout: pEC50
pEC50 is defined as minus the log10 of a concentration measured in mol/L.

Qu. Input Cc1cc(C(=O)N2Cc3cnn(C)c3Nc3ccccc32)ccc1CNC(=O)N1CCC[C@H]1C(=S)N1CCCN(C)CC1 , output reported pEC50.
Ans. 5.37

Reference source for all entries: paper PMC7384330
